Values compiled from patent US8304447B2.

molecules and their reported IC50
- Tested on: GM3
- MEASUREMENT NOTES: GM3 Elisa assay
- Type: cell-based
- CONDITIONS USED: Table 3 (IC 50 Values); B16-FO cells; read-out: IC50_uM_Mean

In: Request body: readout IC50, system GM3, query COc1ccc(C(=O)CCCCCC(=O)N[C@H](CN2CC[C@H](OC)C2)[C@H](O)c2ccc3c(c2)OCCO3)cc1 . Return the value.
Out: 3000 to 10000 nM

In: Request body: readout IC50, system GM3, query O=C(CC12CC3CC(CC(C3)C1)C2)N[C@@H](CN1CCCC1)C(O)c1ccc2c(c1)OCCO2 (stereo partly shown) . Return the value.
Out: 3000 to 10000 nM

In: Request body: readout IC50, system GM3, query COc1ccc(OCCC(=O)N[C@H](CN2C[C@@H]3CC[C@H]2C3)[C@H](O)c2ccc3c(c2)OCCO3)cc1 . Return the value.
Out: 100 to 1000 nM

New cases:
In: Request body: readout IC50, system GM3, query CC[C@H](C)COc1ccc([C@@H](O)[C@@H](CN2CCCC2)NC(=O)CCCCC(=O)c2ccc(OC)cc2)cc1 . Return the value.
Out: ≤ 100 nM
